assay-target: BTK, recombinant human catalytic domain (aa 393-659) (Homo sapiens (Human), UniProt Q06187)
Sequence (Q06187 393-659): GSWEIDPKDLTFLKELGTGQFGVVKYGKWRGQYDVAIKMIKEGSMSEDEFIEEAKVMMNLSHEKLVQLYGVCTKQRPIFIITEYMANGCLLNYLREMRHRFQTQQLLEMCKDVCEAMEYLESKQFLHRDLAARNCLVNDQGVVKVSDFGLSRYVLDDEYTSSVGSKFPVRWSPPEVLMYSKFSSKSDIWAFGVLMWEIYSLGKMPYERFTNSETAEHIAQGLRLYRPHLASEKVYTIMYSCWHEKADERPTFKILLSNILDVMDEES
experimental-protocol: In vitro BTK kinase activity measured by time-resolved fluorescence resonance energy transfer (trFRET)
Type: biochemical
experimental-context: read-out: Btk IC50
pIC50: −log10 of the molar value.
Recorded pIC50 values for a group of molecules are listed next.

Sample records with pIC50:
{"molecule": "CC(C)(C)c1ccc(C(=O)N[C@@H]2CCCN(c3ccc(C(N)=O)c4[nH]c(-c5cccnc5)cc34)C2)cc1 [O.1.26]", "reported": "> 7.00"}
{"molecule": "C=CC(=O)N(CC(C)C)c1cccc(-c2ccc(C(N)=O)c3[nH]ccc23)c1 [E.1.35]", "reported": "6.00 to 7.00"}
{"molecule": "CCOC(=O)N1CC=C(c2cc3c(-c4cccc(-n5cnc6ccccc6c5=O)c4C)ccc(C(N)=O)c3[nH]2)CC1 [E.6.2]", "reported": "> 7.00"}
{"molecule": "Cc1c(NC(=O)COc2cccnc2)cccc1-c1ccc(C(N)=O)c2[nH]c(C3=CCN(S(C)(=O)=O)CC3)cc12 [D.7.14]", "reported": "> 7.00"}

IN: Identify measured pIC50 associated with C=CC(=O)Nc1cc(OCc2ccccc2)ccc1-c1ccc(C(N)=O)c2[nH]ccc12 [E.1.17]
OUT: 5.00 to 6.00

IN: Please list pIC50 recorded for the molecule C=CC(=O)N1CCC[C@H](c2cnc(C(N)=O)c3[nH]ccc23)C1 [E.9.52]
OUT: 6.00 to 7.00

IN: Answer with the recorded pIC50 for the molecule listed here: C=CC(=O)Nc1cccc(-c2ccc(C(N)=O)c3[nH]c(C=C)cc23)c1 [E.1.18]
OUT: > 7.00

IN: For the molecule NC(=O)c1ccc(N2CCCC(n3cnc4cc(C5CC5)cc(F)c4c3=O)C2)c2cc[nH]c12 (centres unmarked) [O.1.13] , give its measured pIC50 value.
OUT: 5.00 to 6.00

IN: Please report pIC50 for the following molecule: Cc1ccc(-c2cc3c(-c4nccs4)ccc(C(N)=O)c3[nH]2)cc1 [U.1.2]
OUT: > 7.00

IN: Respond only with pIC50 recorded for Cc1c(NC(=O)C2CCOCC2)cccc1-c1ccc(C(N)=O)c2[nH]c(C3=CCN(S(C)(=O)=O)CC3)cc12 [D.7.33]
OUT: > 7.00

IN: Indicate the recorded pIC50 value for this molecule: CCC(=O)NCc1ccccc1-c1cc2c(-c3cccc(NC(=O)c4nccs4)c3C)ccc(C(N)=O)c2[nH]1 [E.4.2]
OUT: 5.00 to 6.00

IN: Give the value of pIC50 reported for the following: Cc1c(NC(=O)C2=CCCCC2)cccc1-c1ccc(C(N)=O)c2[nH]c(C3=CCN(S(C)(=O)=O)CC3)cc12 [D.7.19]
OUT: > 7.00

IN: Respond only with pIC50 recorded for Cc1c(NC(=O)C(C)C)cccc1-c1ccc(C(N)=O)c2[nH]c(C3=CCN(S(C)(=O)=O)CC3)cc12 [D.7.40]
OUT: > 7.00

---

assay-target: BTK, recombinant human catalytic domain (aa 393-659) (Homo sapiens (Human), UniProt Q06187)
experimental-protocol: In vitro BTK kinase activity measured by time-resolved fluorescence resonance energy transfer (trFRET)
Type: biochemical
experimental-context: read-out: Btk IC50
IC50 values, listed per item

Use the examples below as a reference point.
{"compound": "C=CC(=O)Nc1cccc(-c2ccc(C(N)=O)c3[nH]ccc23)c1F", "IC50": "< 100 nM"}
{"compound": "C=CC(=O)N1CCC[C@H](c2ccc(C(N)=O)c3[nH]c(-c4cnn(C)c4)cc23)C1", "IC50": "< 100 nM"}

IN: Answer with the recorded IC50 for the compound listed here: CC(C)(C)c1ccc(C(=O)N[C@@H]2CCCN(c3ccc(C(N)=O)c4[nH]ccc34)C2)cc1
OUT: 1000 to 10000 nM

IN: Please give the documented IC50 of C=CC(=O)N1CC(N(C)c2ccc(C(N)=O)c3[nH]c(C4CC4)cc23)C1
OUT: < 100 nM

IN: Kindly indicate its recorded IC50. Item: CC/C=C(\C)C(=O)Nc1cccc(-c2ccc(C(N)=O)c3[nH]c(C4=CCN(S(C)(=O)=O)CC4)cc23)c1C
OUT: < 100 nM
